Target: UniProtKB Q16539
Test: Inhibition of TNF-alpha Production in LPS-Stimulated PBMCs
Details: pbmc
pIC50: −log10 of the molar value.
readout-name: pIC50

Prompt: Fill blank: measured pIC50 of the compound COc1ccc(-c2c(=O)ncn3nc(Sc4ccc(F)cc4)ccc23)c(Cl)c1OC is ____.
Response: < 6.30

Prompt: Which pIC50 value belongs to O=c1ncn2nc(Sc3ccccc3)ccc2c1-c1ccccc1Cl ?
Response: < 6.30

Prompt: What pIC50 value was documented for this compound, Cc1cccc(-c2cccc(C(C(N)=O)c3c(Cl)cccc3Cl)n2)c1 (stereo unspecified) ?
Response: < 6.30

Prompt: What pIC50 value was documented for this compound, Cc1cccc(Sc2ccc3c(-c4c(Cl)cccc4Cl)c(=O)ncn3n2)c1 ?
Response: 6.30 to 7.00

Prompt: Please look up its pIC50: Nc1ccc(Cl)c(-c2c(=O)ncn3nc(Sc4ccc(F)cc4)ccc23)c1Cl
Response: < 6.30

Prompt: Look up pIC50 for this compound: COc1cc(Cl)c(C2=C3C=CC(Sc4ccc(F)cc4)=NN3CNC2=O)cc1OC
Response: < 6.30

====

Each item that follows carries a reported pIC50.
Target: MAPK14 (human) (UniProt Q16539)
Sequence (Q16539 whole entry, looked up): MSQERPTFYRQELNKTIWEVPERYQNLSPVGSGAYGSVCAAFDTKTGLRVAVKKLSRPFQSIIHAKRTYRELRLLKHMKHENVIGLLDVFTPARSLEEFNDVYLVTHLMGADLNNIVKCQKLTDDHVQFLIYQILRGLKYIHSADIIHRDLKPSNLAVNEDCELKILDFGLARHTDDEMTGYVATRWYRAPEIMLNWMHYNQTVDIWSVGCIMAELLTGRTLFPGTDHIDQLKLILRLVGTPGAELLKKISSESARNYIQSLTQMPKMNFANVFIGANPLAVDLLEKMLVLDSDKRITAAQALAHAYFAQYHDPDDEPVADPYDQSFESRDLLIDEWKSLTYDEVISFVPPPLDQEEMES
Assay: Inhibition of IL-1 Production in Whole Blood
pIC50: −log10 of the molar value.

Field: example entries. Status: answers known.
O=C(CN1CCOCC1)Nc1ccc(C2=C3C=CC(Sc4ccc(F)cc4)=NN3CNC2=O)c(Cl)c1	< 6.30
Cc1ccccc1-c1cccc(N(C(N)=O)c2c(Cl)cccc2Cl)n1	< 6.30
Cc1cc(Cl)ccc1SC1=NN2CNC(=O)C(c3c(Cl)cccc3Cl)=C2C=C1	< 6.30
NC(=O)C(c1cccc(-c2ccccc2CO)n1)c1c(Cl)cccc1Cl (stereo not given)	< 6.30

Kindly review the next compound as well.
Prompt: Recorded pIC50 for O=C1NCN2N=C(Sc3ccc(F)cc3F)C=CC2=C1c1cc2c(cc1Cl)OCO2 , please?
Response: > 6.60

====

Target: MAPK14 (human)
Experiment: Inhibition of IL-1 Production in LPS-Stimulated PBMCs
Settings: pbmc
Measured IC50 of individual entries

COC(=O)CCc1ccc(SC2=NN3CNC(=O)C(c4c(Cl)cccc4Cl)=C3C=C2C)cc1	0.1 to 0.5 µM
COC(=O)c1ccccc1Sc1ccc2c(-c3c(Cl)cccc3Cl)c(=O)ncn2n1	< 0.1 µM
N=C(N)Nc1cc(F)c(F)cc1SC1=NN2CNC(=O)C(c3c(Cl)cccc3Cl)=C2C=C1	> 0.5 µM

For the next question, use this compound.
Prompt: Dear colleague, I am looking for the recorded IC50 of the following compound: NC(=O)Nc1cc(F)ccc1SC1=NN2CNC(=O)C(c3c(Cl)cccc3Cl)=C2C=C1
Response: > 0.5 µM

====

Biological target: MAPK14 (human) (UniProt Q16539)
Experiment: Inhibition of IL-1 Production in LPS-Stimulated PBMCs
Details: pbmc
# IC50 per entry

Some compounds with known IC50 results, for comparison:
Nc1cc(C(F)(F)F)ccc1SC1=NN2CNC(=O)C(c3c(Cl)cccc3Cl)=C2C=C1	0.1 to 0.5 µM
CN(C)C(=O)c1ccccc1Sc1ccc2c(-c3c(Cl)cccc3Cl)c(=O)ncn2n1	> 0.5 µM
NC(=O)C(c1cccc(-c2ccccc2)n1)c1cc(Cl)ccc1Cl (stereo not given)	0.1 to 0.5 µM

Prompt: Given the entry Cc1ccc(Sc2ccc3c(-c4c(Cl)cccc4Cl)c(=O)ncn3n2)cc1 , what IC50 was observed with MAPK14 (human) (UniProt Q16539)?
Response: 0.1 to 0.5 µM

====

Target: MAPK14 (human)
Experiment: Inhibition of TNF Production in Whole Blood
readout-name: IC50

O=C(CN1CCOCC1)Nc1ccc(C2=C3C=CC(Sc4ccc(F)cc4)=NN3CNC2=O)c(Cl)c1	> 500 nM
Cc1cc(Cl)ccc1SC1=NN2CNC(=O)C(c3c(Cl)cccc3Cl)=C2C=C1	250 to 500 nM

Prompt: # get_value(readout='IC50', item= N#Cc1ccccc1SC1=NN2CNC(=O)C(c3c(Cl)cccc3Cl)=C2C=C1 )
Response: > 500 nM

====

Molecular target: MAPK14 (human) (UniProt Q16539)
Assay: Inhibition of TNF Production in Whole Blood
IC50 listing for selected compounds.

Reference set, count: 5
Nc1ccccc1SC1=NN2CNC(=O)C(c3c(Cl)cccc3Cl)=C2C=C1	> 500 nM
NC(=O)C(c1cccc(-c2ccccc2)n1)c1cc(Cl)ccc1Cl (configuration not stated)	> 500 nM
Nc1cc(F)ccc1SC1=NN2CNC(=O)C(c3c(Cl)cccc3Cl)=C2C=C1	250 to 500 nM
O=C1NCN2N=C(Sc3ccc(F)cc3F)C=CC2=C1c1cc2c(cc1Cl)OCO2	< 250 nM
Cc1ccccc1-c1cccc(N(C(N)=O)c2c(F)cccc2F)n1	> 500 nM

Prompt: Find the recorded IC50 belonging to CNCc1ccccc1-c1cccc(C(C(N)=O)c2c(Cl)cccc2Cl)n1 (configuration not stated) and report it.
Response: > 500 nM

Prompt: What does the data say about its IC50? Entry: Cc1cccc(-c2cccc(C(C(N)=O)c3c(Cl)cccc3Cl)n2)c1 (configuration not stated)
Response: > 500 nM

====

Recorded IC50 by entry
Molecular target: MAPK14 (human)
Test: Inhibition of IL-6 Production in Whole Blood

Known IC50 results, listed for orientation:
Cc1cc(Cl)ccc1SC1=NN2CNC(=O)C(c3c(Cl)cccc3Cl)=C2C=C1	250 to 500 nM
Nc1ccccc1SC1=NN2CNC(=O)C(c3c(Cl)cccc3Cl)=C2C=C1	> 500 nM
O=C1NCN2N=C(Sc3ccccc3CO)C=CC2=C1c1c(Cl)cccc1Cl	< 250 nM
COc1ccc(-c2c(=O)ncn3nc(Sc4ccc(F)cc4)ccc23)c(Cl)c1OC	> 500 nM
O=C1NCN2N=C(Sc3ccccc3Br)C=CC2=C1c1c(Cl)cccc1Cl	250 to 500 nM

Prompt: Fill in the blank: the reported IC50 of NC(=O)C(c1cccc(-c2ccccc2)n1)c1cc(Cl)ccc1Cl (stereo unspecified) is ____.
Response: > 500 nM

Prompt: Requested read-out: IC50. Entry: Cc1ccccc1SC1=NN2CNC(=O)C(c3c(Cl)cccc3Cl)=C2C=C1
Response: 250 to 500 nM

Prompt: I have this compound here, NC(=O)C(c1cccc(-c2cccc3ccccc23)n1)c1c(Cl)cccc1Cl (stereo unspecified) , and I need its recorded IC50.
Response: > 500 nM

Prompt: Could you share which IC50 value was measured for COC(=O)CCc1ccc(SC2=NN3CNC(=O)C(c4c(Cl)cccc4Cl)=C3C=C2C)cc1 ?
Response: > 500 nM

Prompt: # input compound: NC(=O)C(c1cccc(-c2ccccc2CO)n1)c1c(Cl)cccc1Cl (stereo unspecified) ; wanted: its IC50
Response: > 500 nM

Prompt: Would you kindly share the measured IC50 for Nc1ccc(Cl)c(C2=C3C=CC(Sc4ccc(F)cc4)=NN3CNC2=O)c1Cl ?
Response: > 500 nM

Prompt: # IC50 lookup, item O=C1NCN2N=C(Sc3ccc(F)cc3Cl)C=CC2=C1c1c(Cl)cccc1Cl
Response: < 250 nM

====

Biological target: MAPK14 (human)
Assay: Inhibition of IL-1 Production in Whole Blood
readout-name: IC50

Use the examples below as a reference point.
COc1ccc(-c2c(=O)ncn3nc(Sc4ccc(F)cc4)ccc23)c(Cl)c1OC	> 500 nM
O=C1NCN2N=C(Sc3ccccc3Br)C=CC2=C1c1c(Cl)cccc1Cl	> 500 nM
O=C1NCN2N=C(Sc3ccccc3CO)C=CC2=C1c1c(Cl)cccc1Cl	250 to 500 nM
O=C1NCN2N=C(Sc3ccc(F)cc3Cl)C=CC2=C1c1c(Cl)cccc1Cl	250 to 500 nM

Prompt: Reported IC50, compound NC(=O)C(c1cccc(-c2ccccc2)n1)c1c(Cl)cccc1Cl (centres undefined) : ____
Response: > 500 nM

Prompt: Please give the measured IC50 for this compound: Nc1ccc(Cl)c(-c2c(=O)ncn3nc(Sc4ccc(F)cc4)ccc23)c1Cl
Response: > 500 nM

Prompt: GET /values?readout=IC50&item= Cc1ccccc1-c1cccc(N(C(N)=O)c2c(F)cccc2F)n1
Response: > 500 nM

Prompt: Given O=c1ncn2nc(Sc3ccccn3)ccc2c1-c1c(Cl)cccc1Cl , state its recorded IC50.
Response: > 500 nM

Prompt: Which value of IC50 has been reported for CNCc1ccccc1-c1cccc(C(C(N)=O)c2c(Cl)cccc2Cl)n1 (centres undefined) in the records?
Response: > 500 nM

Prompt: Quick check: IC50 of O=C1NCN2N=C(Sc3ccc(F)cc3)C=CC2=C1c1c(Cl)cccc1Cl ?
Response: > 500 nM

Prompt: IC50 for NC(=O)C(c1cccc(-c2ccccc2C=NO)n1)c1c(Cl)cccc1Cl (centres undefined) ?
Response: > 500 nM

Prompt: What does the data say about its IC50? Entry: N#Cc1ccccc1SC1=NN2CNC(=O)C(c3c(Cl)cccc3Cl)=C2C=C1
Response: > 500 nM

Prompt: What value of IC50 has been reported for the following compound? NC(=O)N(c1cccc(-c2ccc(F)cc2)n1)c1c(F)cccc1F
Response: > 500 nM

Prompt: # lookup: IC50 of COc1ccc(C2=C3C=CC(Sc4ccc(F)cc4)=NN3CNC2=O)c(Cl)c1OC
Response: > 500 nM

Prompt: Value lookup for IC50; key = O=C1NCN2N=C(Sc3ccc(F)cc3Cl)C=CC2=C1c1cc2c(cc1Cl)OCO2
Response: > 500 nM

Prompt: Reported IC50 for NC(=O)N(c1cccc(-c2ccccc2)n1)c1c(Cl)cccc1Cl : what is it?
Response: > 500 nM

Origin of values: the Kinase Knowledgebase extract (Sharma et al. 2016)
